z-score values, listed per item
measurement protocol: basal RPMI8226 viability, no added stimulus, profiling panel, cell-based, calcein-AM fluorescence, 48 h, PK04 Diversity Set (AID 1166);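 also: cells grown under basal conditions without added stimulus; test concentration not given here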
assay setup: RPMI8226 myeloma viability, higher = more signal
API note: the answer field is a bare number with no unit suffix.

| molecule | z-score |
| --- | --- |
| CC(C)[C@@H](OCc1ccccc1)[C@H](C)C=NO[C@H](C)c1cn([C@@H]2COC[C@H]2O)nn1 | -0.0081 |
| CO[C@@H]1COC(=O)CC=C[C@H](C)[C@H](OC)COC(=O)[C@@H]2CCCN2C(=O)CC=C[C@H]1C | -0.822 |

Ask: Entry C#CCCCON=C1C[C@@H](O)[C@@H](O)[C@@H]2[C@@H]3C(=O)N(C[C@@H]4CCCO4)C(=O)[C@@H]3CC[C@H]12 has what z-score?
Result: 0.0556

Ask: Which z-score is reported for this compound? CCO[C@H](c1cc(OC)cc([N+](=O)[O-])c1OC)[C@H](C)[C@@H](OC)[C@H](C)C=CCC(=O)OC
Result: 0.824

====

# reported composite z-score; entries follow
measurement protocol: small-molecule microarray binders of probe aWnt5a, primary screen, biochemical, biotinylated probe, 635/667 nm fluorescence (AID 1113);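 also: score merges 667 nm fluorescence intensity with signal-to-noise per printed feature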
assay setup: higher = more signal

Ask: Consider the molecule O=C1C[C@H](c2ccccc2)[C@H](c2ccc(Br)cc2)O1 and give its measured composite z-score.
Result: -0.129

Ask: Entry CC(C)[C@@H](OCc1ccccc1)[C@H](C)C=NO[C@H](C)c1cn([C@@H]2COC[C@H]2O)nn1 has what composite z-score?
Result: -0.0832

====

measurement protocol: binders from COS7 lysate, DM2A8 probe, primary screen, torsin A project, cell lysate, small-molecule microarray, fluorescence 635/667 (AID 1065)
assay setup: higher = more signal, COS7 lysate expressing mutant human TOR1A
# composite z-score annotations
Output: the number by itself.

| molecule | meas value |
| --- | --- |
| CC=CC1=C(CO)[C@H](O)[C@H]2O[C@H]2[C@@H]1O | 0.112 |
| COC(OC)[C@@H](C)[C@H](OC)[C@@H](C)[C@H](OC)c1ccccc1 | 0.594 |
| CC(=O)OC[C@H]1O[C@@H](ON=C(C)CCC(=O)OC[C@H]2O[C@H](C#Cc3ccccc3)C=C[C@@H]2Oc2ccc(C)cc2)[C@H](OC(C)=O)[C@@H](OC(C)=O)[C@@H]1OC(C)=O | 0.745 |
| CO[C@@H]1COC(=O)CC=C[C@H](C)[C@H](OC)COC(=O)[C@@H]2CCCN2C(=O)CC=C[C@H]1C | 1.74 |
| O=C1C[C@@H](O)[C@@H](O)[C@@H]2[C@@H]3C(=O)N(Cc4ccccc4)C(=O)[C@@H]3CC[C@H]12 | 0.49 |

Ask: What measured composite z-score goes with CCOC(=O)CCN1C(=O)[C@H]2[C@@H]3C(=CC[C@H]2C1=O)C(=O)[C@H]1O[C@H]1[C@H]3O ?
Result: -0.42

Ask: // lookup composite z-score for C#CCCCON=C1C[C@@H](O)[C@@H](O)[C@@H]2[C@@H]3C(=O)N(C[C@@H]4CCCO4)C(=O)[C@@H]3CC[C@H]12
Result: 0.368

====

z-score reference
measurement protocol: HepG2 cell viability effects, profiling panel, calcein-AM fluorescence, 48 h, basal (AID 1164); also: test concentration not given here
assay setup: higher = more signal
Number only, no unit.

Below: 2 compounds and their reported z-score.
| compound | z-score |
| --- | --- |
| COC(=O)CC=C[C@@H](C)[C@@H](C=NOC[C@@H](C)[C@H](OCc1ccccc1)C(C)C)NS(=O)(=O)c1ccc(C)cc1 | -0.692 |
| CC(CCC(=O)OC[C@H]1O[C@H](C#Cc2ccccc2)C=C[C@@H]1Oc1ccc(C)cc1)=NO[C@H](C)c1cn([C@@H]2COC[C@H]2O)nn1 | 0.669 |

Ask: What does the data say about its z-score? Entry: CCCNC(=O)OC[C@H]1O[C@H](CCON=C[C@@H](NS(=O)(=O)c2ccc(C)cc2)[C@H](C)C=CCC(=O)OC)C=C[C@@H]1Oc1ccc(OC)cc1
Result: -1.18

Ask: Query (compound): CC(=O)OC[C@H]1O[C@@H](ON=C(C)CCN2CCCCc3nc(C)c(C)cc32)[C@H](OC(C)=O)[C@@H](OC(C)=O)[C@@H]1OC(C)=O ; field requested: z-score
Result: -0.716

Ask: For the compound shown here, COC(=O)CC=C[C@@H](C)[C@@H](C=NOC[C@@H](C)[C@H](OCc1ccccc1)C(C)C)OC , give the reported z-score.
Result: -0.0472

Ask: Given the compound CO[C@H]1COC(=O)[C@H](CCSC)NC(=O)CC=C[C@@H](C)[C@H](OC)COC(=O)[C@@H](OCc2ccccc2)C=C[C@@H]1C , what is its reported z-score?
Result: -1.1

Ask: Can you look up the measured z-score of O=C1[C@H]2CCn3c(=O)n(Cc4cc5c(cc4Cl)OCO5)c(=O)n3[C@H]2[C@H](O)[C@@H]2O[C@H]12 for me?
Result: -0.0111
